Reported Kq values for a set of compounds
- TARGET_OR_TEST_SYSTEM: DNA repair protein RAD51 homolog 1 (Homo sapiens)
- ASSAY_COMMENT: Binding affinity to RAD51 (158 to 180 residues) (unknown origin) assessed as quenching rate constant by fluorescence spectroscopy
Where a SMILES comes first, the peptide text is derived from it. The star is where a group is joined. Nicotinoyl(6-CF3) = O=C(c1ccc(C(F)(F)F)nc1)*; X1 = O=C(c1cncc(C(F)(F)F)c1)*

[[record]]
compound = "CC(C)C[C@H](NC(=O)[C@H](Cc1ccc(O)cc1)NC(=O)c1cncc(C(F)(F)F)c1)C(=O)N[C@@H](CCC(N)=O)C(=O)N[C@@H](CC(N)=O)C(=O)N[C@H](C(=O)N[C@@H](Cc1ccccc1)C(=O)N[C@@H](CCCCN)C(=O)N[C@H](C(=O)N[C@@H](CO)C(=O)N[C@@H](CCCCN)C(=O)N[C@@H](CCCNC(=N)N)C(=O)N[C@@H](CCC(N)=O)C(=O)N[C@@H](CO)C(=O)N[C@@H](Cc1ccccc1)C(=O)N[C@@H](C)C(=O)N1CCC[C@H]1C(N)=O)C(C)C)[C@@H](C)O (X1-YLQNTFKVSKRQSFAP-NH2)"
data_value = "1.32 10^12/M"


Ask: So what's the measured Kq for this one? CC(C)C[C@H](NC(=O)[C@H](Cc1ccc(O)cc1)NC(=O)c1ccc(C(F)(F)F)nc1)C(=O)N[C@@H](CCC(N)=O)C(=O)N[C@@H](CC(N)=O)C(=O)N[C@H](C(=O)N[C@@H](Cc1ccccc1)C(=O)N[C@@H](CCCCN)C(=O)N[C@H](C(=O)N[C@@H](CO)C(=O)N[C@@H](CCCCN)C(=O)N[C@@H](CCCNC(=N)N)C(=O)N[C@@H](CCC(N)=O)C(=O)N[C@@H](CO)C(=O)N[C@@H](Cc1ccccc1)C(=O)N[C@@H](C)C(=O)N1CCC[C@H]1C(N)=O)C(C)C)[C@@H](C)O ({Nicotinoyl(6-CF3)}-YLQNTFKVSKRQSFAP-NH2)
Result: 1.24 10^12/M

###

- TARGET_OR_TEST_SYSTEM: DNA repair protein RAD51 homolog 1 (Homo sapiens)
- ASSAY_COMMENT: Binding affinity to RAD51 (158 to 180 residues) (unknown origin) assessed as random coil content at 15 uM by circular dichroism spectroscopy (reference value: 39.2%)
Where a SMILES comes first, the peptide text is derived from it. The star is where a group is joined. Nicotinoyl(6-CF3) = O=C(c1ccc(C(F)(F)F)nc1)*; X1 = O=C(c1cncc(C(F)(F)F)c1)*; X2 = O=C(c1cccnc1C(F)(F)F)*; X3 = O=C(c1cccnc1Br)*; X4 = Cc1ccncc1C(=O)*
READOUT_TYPE: Activity (%)
State the answer as a number, implicitly in %.

Worked examples follow.
[[record]]
compound = "Cc1ccncc1C(=O)N[C@@H](Cc1ccc(O)cc1)C(=O)N[C@@H](CC(C)C)C(=O)N[C@@H](CCC(N)=O)C(=O)N[C@@H](CC(N)=O)C(=O)N[C@H](C(=O)N[C@@H](Cc1ccccc1)C(=O)N[C@@H](CCCCN)C(=O)N[C@H](C(=O)N[C@@H](CO)C(=O)N[C@@H](CCCCN)C(=O)N[C@@H](CCCNC(=N)N)C(=O)N[C@@H](CCC(N)=O)C(=O)N[C@@H](CO)C(=O)N[C@@H](Cc1ccccc1)C(=O)N[C@@H](C)C(=O)N1CCC[C@H]1C(N)=O)C(C)C)[C@@H](C)O (X4-YLQNTFKVSKRQSFAP-NH2)"
readout_type = "Activity"
units = "%"
data_value = 32.7

[[record]]
compound = "CC(C)C[C@H](NC(=O)[C@@H](N)Cc1ccc(O)cc1)C(=O)N[C@@H](CCC(N)=O)C(=O)N[C@@H](CC(N)=O)C(=O)N[C@H](C(=O)N[C@@H](Cc1ccccc1)C(=O)N[C@@H](CCCCN)C(=O)N[C@H](C(=O)N[C@@H](CO)C(=O)N[C@@H](CCCCN)C(=O)N[C@@H](CCCNC(=N)N)C(=O)N[C@@H](CCC(N)=O)C(=O)N[C@@H](CO)C(=O)N[C@@H](Cc1ccccc1)C(=O)N[C@@H](C)C(=O)N1CCC[C@H]1C(=O)O)C(C)C)[C@@H](C)O (H-YLQNTFKVSKRQSFAP-OH)"
readout_type = "Activity"
units = "%"
data_value = 18

[[record]]
compound = "CC(C)C[C@H](NC(=O)[C@H](Cc1ccc(O)cc1)NC(=O)c1cncc(C(F)(F)F)c1)C(=O)N[C@@H](CCC(N)=O)C(=O)N[C@@H](CC(N)=O)C(=O)N[C@H](C(=O)N[C@@H](Cc1ccccc1)C(=O)N[C@@H](CCCCN)C(=O)N[C@H](C(=O)N[C@@H](CO)C(=O)N[C@@H](CCCCN)C(=O)N[C@@H](CCCNC(=N)N)C(=O)N[C@@H](CCC(N)=O)C(=O)N[C@@H](CO)C(=O)N[C@@H](Cc1ccccc1)C(=O)N[C@@H](C)C(=O)N1CCC[C@H]1C(N)=O)C(C)C)[C@@H](C)O (X1-YLQNTFKVSKRQSFAP-NH2)"
readout_type = "Activity"
units = "%"
data_value = 23.4


Ask: For CC(C)C[C@H](NC(=O)[C@H](Cc1ccc(O)cc1)NC(=O)c1ccc(C(F)(F)F)nc1)C(=O)N[C@@H](CCC(N)=O)C(=O)N[C@@H](CC(N)=O)C(=O)N[C@H](C(=O)N[C@@H](Cc1ccccc1)C(=O)N[C@@H](CCCCN)C(=O)N[C@H](C(=O)N[C@@H](CO)C(=O)N[C@@H](CCCCN)C(=O)N[C@@H](CCCNC(=N)N)C(=O)N[C@@H](CCC(N)=O)C(=O)N[C@@H](CO)C(=O)N[C@@H](Cc1ccccc1)C(=O)N[C@@H](C)C(=O)N1CCC[C@H]1C(N)=O)C(C)C)[C@@H](C)O ({Nicotinoyl(6-CF3)}-YLQNTFKVSKRQSFAP-NH2) , what is its reported Activity?
Result: 22.1

Ask: // query Activity value for entry CC(C)C[C@H](NC(=O)[C@H](Cc1ccc(O)cc1)NC(=O)c1cccnc1C(F)(F)F)C(=O)N[C@@H](CCC(N)=O)C(=O)N[C@@H](CC(N)=O)C(=O)N[C@H](C(=O)N[C@@H](Cc1ccccc1)C(=O)N[C@@H](CCCCN)C(=O)N[C@H](C(=O)N[C@@H](CO)C(=O)N[C@@H](CCCCN)C(=O)N[C@@H](CCCNC(=N)N)C(=O)N[C@@H](CCC(N)=O)C(=O)N[C@@H](CO)C(=O)N[C@@H](Cc1ccccc1)C(=O)N[C@@H](C)C(=O)N1CCC[C@H]1C(N)=O)C(C)C)[C@@H](C)O (X2-YLQNTFKVSKRQSFAP-NH2)
Result: 10.8

Ask: Fill in the blank: the reported Activity of CC(C)C[C@H](NC(=O)[C@H](Cc1ccc(O)cc1)NC(=O)c1cccnc1Br)C(=O)N[C@@H](CCC(N)=O)C(=O)N[C@@H](CC(N)=O)C(=O)N[C@H](C(=O)N[C@@H](Cc1ccccc1)C(=O)N[C@@H](CCCCN)C(=O)N[C@H](C(=O)N[C@@H](CO)C(=O)N[C@@H](CCCCN)C(=O)N[C@@H](CCCNC(=N)N)C(=O)N[C@@H](CCC(N)=O)C(=O)N[C@@H](CO)C(=O)N[C@@H](Cc1ccccc1)C(=O)N[C@@H](C)C(=O)N1CCC[C@H]1C(N)=O)C(C)C)[C@@H](C)O (X3-YLQNTFKVSKRQSFAP-NH2) is ____.
Result: 27.6
